# experiment: PSAC antagonists in infected red cells, primary screen, cell-based, P. falciparum Indochina, OD700, 1 h (AID 1154)
# conditionInfo: P. falciparum Indochina infected RBC osmotic lysis, higher = more signal, called active from +8 up or from −8 down
attributeMeasured: z-score
Just the number.

[ask] Read off the recorded z-score for COCCOC(=O)N1C(=O)[C@@]2(c3cc(C#CCNC(N)=O)ccc31)[C@H](c1ccc(OCCO)cc1)N1[C@H](c3ccccc3)[C@H](c3ccccc3)OC(=O)[C@H]1[C@@H]2C(=O)Nc1nc2ccccc2s1
[reply] 2.66

[ask] Give recorded z-score. COCCOC(=O)N1C(=O)[C@@]2(c3cc(C#CCCO)ccc31)[C@H](C(=O)N1CCCCCCC1)[C@H]1C(=O)O[C@H](c3ccccc3)[C@H](c3ccccc3)N1[C@@H]2c1ccc(O)cc1
[reply] 1.06

[ask] Name the recorded z-score of the molecule listed here: CC(=O)Nc1ccc([C@H]2[C@H](C)CC[C@H]3C(=O)N4[C@@H](CC[C@@H](C)[C@@H]4c4ccc(NC(C)=O)cc4)C(=O)N32)cc1
[reply] 1.91

[ask] Provide only the value of recorded z-score for Cc1ccc(N2C(=O)c3ccccc3[C@@H](C(=O)NCc3ccccc3)[C@@H]2c2ccc(CO)cc2)nc1
[reply] 2.1

[ask] Give me measured z-score, please, for this molecule: CC(=O)NCCCC[C@@H]1NC(=O)[C@H]2C[C@@H](C(=O)NCCCCCCN(C)C)[C@@H](c3cccc(OCCO)c3)N2C1=O
[reply] 2.81

[ask] Please report z-score for the following molecule: CO[C@H]1O[C@H](CO)[C@@H](OC(=O)Nc2ccc3c(c2)OCO3)[C@H](OC(=O)Nc2ccccc2)[C@@H]1OC(=O)Nc1ccccc1
[reply] 7.77

[ask] In one line, give reported z-score of the entry CC(C)N1CC=CC23O[C@@H]4/C=C\CCCOC(=O)C4[C@H]2C(=O)N(CCO)[C@@H]3C1=O (stereo partly drawn) .
[reply] 2.92

[ask] Consider the molecule COCCOC(=O)N1C(=O)[C@@]2(c3cc(C#CCC(C(=O)OC)C(=O)OC)ccc31)[C@H](C(=O)N1CCN(c3ncccn3)CC1)[C@H]1C(=O)O[C@H](c3ccccc3)[C@H](c3ccccc3)N1[C@@H]2c1ccc(O)cc1 . State its measured z-score.
[reply] 1.92

[ask] Consider the molecule C=CCOC(=O)[C@@H]1[C@H]2C(=O)O[C@H](c3ccccc3)[C@H](c3ccccc3)N2[C@H](c2ccc(OCCOC(=O)[C@H]3C[C@H]4C(=O)N[C@@H](CCCCNC(C)=O)C(=O)N4[C@H]3c3ccc(O)cc3)cc2)[C@@]12C(=O)Nc1ccc(I)cc12 . State its measured z-score.
[reply] 2.99

[ask] Supply recorded z-score for CO[C@H]1COC(=O)[C@@H](OCc2ccccc2)C=C[C@H](C)[C@@H](OC)COC(=O)[C@H](OCc2ccccc2)C=C[C@@H]1C here.
[reply] -0.0125

[ask] Consider the molecule C=CCN1C(=O)[C@@]2(Cc3ccccc3)N=C(c3ccc(OCCCO)cc3)O[C@H]2c2ccccc21 and give its recorded z-score.
[reply] 33.3

[ask] Give the measured z-score for NC(=O)NCC#Cc1ccc2c(c1)[C@]1(C(=O)N2)[C@H](C(=O)N2CCCCCCC2)[C@H]2C(=O)O[C@H](c3ccccc3)[C@H](c3ccccc3)N2[C@@H]1c1ccccc1OCCO
[reply] 0.833

[ask] Find the measured z-score of CO[C@@H]1COC(=O)[C@H](COCc2ccccc2)NC(=O)CC=C[C@@H](C)[C@H](OC)COC(=O)[C@H](COCc2ccccc2)NC(=O)CC=C[C@H]1C and report it.
[reply] -0.279
